- Tested on: MOLT-4
- Protocol: NCI tumour cell line growth inhibition, 48 h
Calls of active or inactive are those of the source. No stated cut-off is given here; in the data, active = GI50 up to about 1.1 µM and inactive = higher.
Recorded GI50 for the following molecules

# Molecule, GI50
measured = [
    ("Cc1cc(-c2ccccc2)nc(Nc2cc3ccccc3[nH]2)n1", "> 100 µM (inactive)"),
    ("O=C1CC(c2ccccc2)n2c(nc3ccccc32)N1 (stereo unspecified)", "65.8 µM (inactive)"),
    ("Cc1ccc(Nc2n[nH]c(=S)s2)cc1", "> 100 µM (inactive)"),
    ("O=c1[nH]c(N/N=C\\C(=N/Nc2nc3ccccc3c(=O)[nH]2)C(O)C(O)C(O)CO)nc2ccccc12 (stereo unspecified)", "> 100 µM (inactive)"),
    ("CN1C(=O)c2ccccc2OC12C=Cc1ccc(O)cc1O2 (stereo unspecified)", "16.7 µM (inactive)"),
    ("CCn1c(=O)c2nc(SC)sc2n(-c2ccccc2)c1=S", "31.6 µM (inactive)"),
    ("Cc1ccc(-c2cc(-c3ccco3)nc(N)n2)o1", "> 100 µM (inactive)"),
    ("COC(=O)C1CCC(=O)N1CN(C(C)=O)c1ccccc1Cl (stereo unspecified)", "> 100 µM (inactive)"),
    ("CCc1cc(=O)n(/C(C)=C/c2ccccc2)n1C", "> 100 µM (inactive)"),
    ("C=C1c2c(n(S(=O)(=O)c3ccccc3)c3ccccc23)[C@@]2(C(=O)OC)CC3C=CC2N1C3", "> 100 µM (inactive)"),
    ("CCCCC(=O)OC[n+]1ccc2c(C)c3[nH]c4ccccc4c3c(C)c2c1", "0.0775 µM (active)"),
]
